System: K562
Assay: NCI tumour cell line growth inhibition, 48 h
The source made the active and inactive calls. Rule as the data show it: active = GI50 up to about 1.1 µM and inactive = higher.
Can you answer with just one of these options? Yes = active, No = inactive

COMPOUND	TARGET ENTITY	ASSIGNED CLASS
Cc1cc(S(=O)(=O)Nc2nc(N)nc(N(C)C)n2)c(SCC(=O)O)cc1Cl	K562	No

Test call, this compound: `COC(=O)[C@@H]1CN(C(=O)CCc2ccccc2)C(=O)N1C(=O)OCc1ccccc1`
No

Test call, this compound: `CCOC(=O)/C(=C\c1cccs1)P(=O)(OCC)OCC`
No

Test call, this compound: Cc1nnc(N)nc1C/C=C/C(Sc1ccc(Cl)cc1)c1ccccc1 (stereo unspecified)
No

Test call, this compound: `Cn1c2ccccc2c(=NNc2cccc(C(=O)O)c2)c2ccccc21`
No

Test call, this compound: `O=c1oc2ccc3ccccc3c2cc1-c1nnc(Nc2ccccc2)s1`
No

Test call, this compound: `O=C(N/N=C\c1ccc2ccccc2c1)Nc1ccc([N+](=O)[O-])cc1`
No

Test call, this compound: COC(=O)C(C(=O)C(=O)Nc1c(C)cccc1C(C)(C)C)c1nc2ccc(Cl)cc2nc1O (stereo unspecified)
No

Test call, this compound: N#Cc1nn(C2OC(COC(=O)c3ccccc3)C(OC(=O)c3ccccc3)C2OC(=O)c2ccccc2)c2nc[nH]c(=O)c12 (stereo unspecified)
No

Values compiled from ChEMBL document CHEMBL1201862.
